Data provenance is PubChem BioAssay (NCI).

Tested on: NCI-H522 lung
assay overview: NCI tumour cell line growth inhibition, 48 h
recorded endpoint: log10(TGI) (log10 of the value in µM)
Would you kindly interpret these values as log10 of TGI expressed in µM?

N[C@H]1c2c(Br)sc(Br)c2C(=O)[C@H]1O    0.95
CC1=C/C=C/C(=O)O[C@@H]([C@H](C)[C@H](O)[C@@H](C)NC(=O)C(C)C)[C@H](C)/C=C/C(C)=C/[C@H]2C=CCC[C@@]2(C)\C=C\1    1.13
Cc1nnc(N)nc1/C=C\c1ccc(Cl)cc1Cl    1.76
COC(=O)c1c(O)ccc2c1c1cc3ccccc3cc1n2Cc1cc(OC)cc(OC)c1    -0.38
O=C(/C=C/C12c3ccccc3C(c3ccccc31)C1C(=O)N(c3ccc(Cl)cc3)C(=O)C12)c1ccccn1 (stereo not given)    0.00

I would be grateful if you could provide log10(TGI) for each of the following entries.
1. Clc1cc(-c2ccccc2)nc(Nc2nc3ccccc3[nH]2)n1
2. C=C(C)[C@@H](O)[C@H](O)C[C@H](C)C1CC[C@]2(C)C1=CC[C@@H]1[C@@]3(C)CC[C@@H](OC(C)=O)C(C)(C)[C@@H]3C[C@@H](OC3OC(COC(C)=O)C(O)C(O)C3O)[C@]12C (stereo not given in full)
3. CCOP(=O)(CCCC(O)CNc1nc(N)nc(Cl)c1N=Nc1ccc(Cl)cc1)OCC (stereo not given)

OUT:
[1.52, 0.55, 1.23]

Dear colleague, could you please provide log10(TGI) for the molecules listed below?
1. Nn1c(Nc2ccc(S(N)(=O)=O)cc2)nnc(/C=C/c2c(O)ccc3ccccc23)c1=O
2. CCN1c2ccccc2NC(=S)c2c1n[nH]c2-c1ccccc1

OUT:
1. 1.52
2. 1.72
